test.system: T1, TNFR1 (Homo sapiens, UniProt P19438)
T1 chain: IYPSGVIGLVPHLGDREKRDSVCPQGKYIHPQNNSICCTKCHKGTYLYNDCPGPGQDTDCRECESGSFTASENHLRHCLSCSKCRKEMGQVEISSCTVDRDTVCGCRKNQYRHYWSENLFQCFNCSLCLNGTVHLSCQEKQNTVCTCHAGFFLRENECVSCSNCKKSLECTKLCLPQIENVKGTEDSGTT
test.summary: yeast display SC50
result.type: apparent Kd (screen) (nM)

>  <binder>
Q34H (designed binder) MTLQELLREEALRRAEAEAFRYALELLAEKFPEHKEYLLDLAEEIESQIRSLSGVDVEDVRKFLDKEWAWVKELLAEHPAELAEVEAARAARLAELRAEVEAKVAA

>  <unit.label>
nM

>  <apparent Kd (screen)>
0.869

$$$$

P. S47Q (designed binder) MTLQELLREEALRRAEAEAFRYALELLAEKFPEQKEYLLDLAEEIEQQIRSLSGVDVEDVRKFLDKEWAWVKELLAEHPAELAEVEAARAARLAELRAEVEAKVAA
Q. L27A (designed binder) MTLQELLREEALRRAEAEAFRYALELAAEKFPEQKEYLLDLAEEIESQIRSLSGVDVEDVRKFLDKEWAWVKELLAEHPAELAEVEAARAARLAELRAEVEAKVAA
QUERY: Of P and Q , whose reported apparent Kd (screen) is the larger number? // return label of chosen record
RESULT: P

a. L74C (designed binder) MTLQELLREEALRRAEAEAFRYALELLAEKFPEQKEYLLDLAEEIESQIRSLSGVDVEDVRKFLDKEWAWVKECLAEHPAELAEVEAARAARLAELRAEVEAKVAA
b. L26F (designed binder) MTLQELLREEALRRAEAEAFRYALEFLAEKFPEQKEYLLDLAEEIESQIRSLSGVDVEDVRKFLDKEWAWVKELLAEHPAELAEVEAARAARLAELRAEVEAKVAA
QUERY: Lab log: flag the item ( a or b ) with the smaller apparent Kd (screen) figure. Pick one and reply with its label.
RESULT: b
(b: 0.593 nM, a: 1.4 nM)
